# target_or_system: Recombinant human EIF2AK3 (PERK) catalytic domain (amino acids 536-1116) (Homo sapiens (Human))
# Sequence (Q9NZJ5 536-1116): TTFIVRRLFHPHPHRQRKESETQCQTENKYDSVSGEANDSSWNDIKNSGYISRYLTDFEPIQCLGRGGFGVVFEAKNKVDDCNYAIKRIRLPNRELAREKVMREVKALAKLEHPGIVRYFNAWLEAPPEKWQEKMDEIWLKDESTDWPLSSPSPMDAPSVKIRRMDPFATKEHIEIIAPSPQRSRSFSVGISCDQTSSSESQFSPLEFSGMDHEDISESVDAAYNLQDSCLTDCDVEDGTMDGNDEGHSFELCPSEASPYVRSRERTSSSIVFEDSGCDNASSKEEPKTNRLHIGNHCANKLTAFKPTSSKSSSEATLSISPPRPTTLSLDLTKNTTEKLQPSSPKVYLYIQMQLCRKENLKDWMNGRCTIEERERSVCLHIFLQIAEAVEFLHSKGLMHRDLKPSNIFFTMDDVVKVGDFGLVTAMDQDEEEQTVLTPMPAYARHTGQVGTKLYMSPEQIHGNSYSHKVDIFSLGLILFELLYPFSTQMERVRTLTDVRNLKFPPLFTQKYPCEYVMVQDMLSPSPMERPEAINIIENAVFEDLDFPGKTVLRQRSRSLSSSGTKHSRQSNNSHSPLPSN
# protocol_text: PERK In Vitro Activity Assay (isolated), TR-FRET kinase assay
# run_parameters: isolated PERK enzyme, 1.5 μM ATP, read-out: Biochemical IC50
Measured IC50 accompanies every entry in the list below.

The examples below pair each entry with its known result.
[2H]C([2H])([2H])c1nc(-c2ccc(NC(=O)C(O)c3cc(F)cc(C(F)(F)F)c3)c(F)c2F)c2c(N)ncc(Cl)n12 (stereo not drawn) [Example 165]: 26 to 50 nM
[2H]C([2H])([2H])c1nc(-c2ccc(NC(=O)C(O)c3cccc(F)c3)cc2C)c2c(N)ncc(Cl)n12 (stereo not drawn) [Example 32]: 1 to 25 nM

Query: State the recorded IC50 for this entry: [2H]C([2H])([2H])c1nc(-c2ccc(NC(=O)C(O)c3cccc(Cl)c3)c(F)c2F)c2c(N)nc(C)cn12 (stereo not drawn) [Example 140]
Result: 1 to 25 nM

Query: Subsequent entry: [2H]C([2H])([2H])c1nc(-c2ccc(NC(=O)C(O)c3cc(F)cc(C(F)(F)F)c3)c(F)c2F)c2c(N)ncc(C)n12 (stereo not drawn) [Example 161]
Result: 1 to 25 nM

Query: What do we get for Cc1cnc(N)c2c(-c3ccc(NC(=O)C(O)c4cccc(F)c4)c(F)c3)nc(C)n12 (stereo not drawn) [Example 124] ?
Result: 26 to 50 nM

Query: Would you mind doing [2H]C([2H])([2H])c1nc(-c2ccc(NC(=O)C(O)c3cccc(F)c3)cc2F)c2c(N)ncc(C)n12 (stereo not drawn) as well?
Result: 1 to 25 nM

Query: Same again, this time with Cc1cn2c(C)nc(-c3ccc(NC(=O)C(O)c4cccc(F)c4)c(F)c3F)c2c(N)n1 (stereo not drawn) [Example 129]
Result: 501 to 1000 nM

Query: Also need [2H]C([2H])([2H])c1nc(-c2ccc(NC(=O)C(O)c3cccc(F)c3)c(F)c2F)c2c(N)ncc(C)n12 (stereo not drawn) [Example 132] , thanks.
Result: 1 to 25 nM

FYI, the data here is from patent US12331054B2.
